Target: mouse BLyS protein (mouse, UniProt Q9WU72 69-309)
Sequence (Q9WU72 69-309): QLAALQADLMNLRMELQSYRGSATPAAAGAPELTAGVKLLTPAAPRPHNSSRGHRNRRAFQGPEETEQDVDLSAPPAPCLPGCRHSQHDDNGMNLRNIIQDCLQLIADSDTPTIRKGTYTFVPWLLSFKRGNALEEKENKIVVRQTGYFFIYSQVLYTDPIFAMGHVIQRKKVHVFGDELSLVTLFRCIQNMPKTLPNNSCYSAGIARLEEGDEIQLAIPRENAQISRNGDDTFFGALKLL
Assay: cell-based or functional assay
assay.endpoint: mouse B lymphocyte proliferation (OD450 nm), antibody 0.00128 nM

binder: 97A3C2H4 (antibody, V domains shown, Mouse hybridoma monoclonal antibody purified on Protein G) VH: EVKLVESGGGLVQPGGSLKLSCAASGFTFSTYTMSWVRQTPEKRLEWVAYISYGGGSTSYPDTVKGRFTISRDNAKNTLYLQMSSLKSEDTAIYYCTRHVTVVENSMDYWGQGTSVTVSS VL: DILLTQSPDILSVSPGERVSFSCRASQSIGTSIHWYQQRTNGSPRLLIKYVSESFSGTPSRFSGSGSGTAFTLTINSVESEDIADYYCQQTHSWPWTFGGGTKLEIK
data.value: 2200
--
binder: 93C6F10D3 (antibody, V domains shown, Mouse hybridoma monoclonal antibody purified on Protein G) VH: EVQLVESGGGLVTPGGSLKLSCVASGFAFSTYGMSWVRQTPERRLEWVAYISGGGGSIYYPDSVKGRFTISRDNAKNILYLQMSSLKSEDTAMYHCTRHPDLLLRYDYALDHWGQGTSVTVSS VL: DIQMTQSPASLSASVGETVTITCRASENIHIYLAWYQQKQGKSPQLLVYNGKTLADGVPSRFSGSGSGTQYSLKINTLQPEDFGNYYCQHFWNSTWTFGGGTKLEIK
data.value: 2290
--
binder: 89A2G5E7 (antibody, V domains shown, Mouse hybridoma monoclonal antibody purified on Protein G) VH: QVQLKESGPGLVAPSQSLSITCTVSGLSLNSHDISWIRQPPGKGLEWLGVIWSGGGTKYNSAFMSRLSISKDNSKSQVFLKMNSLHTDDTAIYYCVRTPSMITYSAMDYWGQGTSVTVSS VL: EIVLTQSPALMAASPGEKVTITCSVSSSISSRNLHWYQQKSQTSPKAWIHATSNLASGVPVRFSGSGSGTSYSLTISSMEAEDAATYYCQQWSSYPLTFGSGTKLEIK
data.value: 2270
--
binder: 8E7D9C7F5 (antibody, V domains shown, Mouse hybridoma monoclonal antibody purified on Protein G) VH: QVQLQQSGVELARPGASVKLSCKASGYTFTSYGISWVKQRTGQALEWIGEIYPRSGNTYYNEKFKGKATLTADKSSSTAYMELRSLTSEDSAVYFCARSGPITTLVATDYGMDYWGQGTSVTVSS VL: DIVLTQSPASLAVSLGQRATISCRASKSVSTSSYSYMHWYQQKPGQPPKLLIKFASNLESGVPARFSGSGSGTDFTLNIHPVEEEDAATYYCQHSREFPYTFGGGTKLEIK
data.value: 2240
--
binder: 78C11D2D12 (antibody, V domains shown, Mouse hybridoma monoclonal antibody purified on Protein G) VH: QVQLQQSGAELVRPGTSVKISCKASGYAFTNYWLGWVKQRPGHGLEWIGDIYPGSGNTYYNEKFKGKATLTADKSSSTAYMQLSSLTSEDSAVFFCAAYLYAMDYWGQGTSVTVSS VL: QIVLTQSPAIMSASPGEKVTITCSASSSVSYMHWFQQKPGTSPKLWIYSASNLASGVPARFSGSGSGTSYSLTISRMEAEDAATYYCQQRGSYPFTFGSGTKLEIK
data.value: 2380
